# SYSTEM TESTED: NDM-1 (Klebsiella pneumoniae, UniProt C7C422)
# Sequence (C7C422 29-270, looked up, species assumed): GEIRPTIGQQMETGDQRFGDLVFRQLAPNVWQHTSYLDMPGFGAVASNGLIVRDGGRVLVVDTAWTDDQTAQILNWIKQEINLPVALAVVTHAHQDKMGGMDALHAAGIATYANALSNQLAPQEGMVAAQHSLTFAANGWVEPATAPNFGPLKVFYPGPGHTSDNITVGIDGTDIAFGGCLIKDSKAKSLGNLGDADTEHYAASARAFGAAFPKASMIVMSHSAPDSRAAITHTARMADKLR
# RUN DESCRIPTION: Enzyme activity: determination of IC50, fluorescence assay with CCF2-FA substrate
# Format: biochemical
# CONDITION INFO: NDM-1 enzyme 1 pM, CCF2-FA 1.25 μM, 2 hours at 25° C.; read-out: NDM1 IC50
METRIC: pIC50
Keep it numeric: pIC50 is minus log10 of the concentration in mol/L.

INSERT INTO results (compound, metric, experimental_result) VALUES
  ('CCC[C@H](C(=O)O)[C@H](Cc1ccc(Cl)cc1)c1nnn[nH]1 [Example 263]', 'pIC50', 7.24),
  ('CC(C)C[C@H](C(=O)O)[C@H](Cc1ccc(NC2CCNC2)nc1)c1nnn[nH]1 (stereo partly drawn) [Example 321]', 'pIC50', 6.36),
  ('CC(C)C[C@H](C(=O)O)[C@H](Cc1ccc(N2CC(N3CCOCC3)C2)nc1)c1nnn[nH]1 [Example 329]', 'pIC50', 6.77),
  ('CCC[C@H](C(=O)[O-])[C@H](Cc1ccc(C2CCC[N+](C)(C)C2)nc1)c1nnn[nH]1 (stereo partly drawn) [Example 292]', 'pIC50', 5.59),
  ('CCC[C@H](C(=O)O)[C@H](Cc1ccc(Br)s1)c1nnn[nH]1 [Example 425]', 'pIC50', 6.98);

GET /value?item= CC(C)(C)[C@H](C(=O)O)[C@H](Cc1ccc(NC(=N)N)nc1)c1nnn[nH]1 [Example 422] &field=pIC50 returns 6.64

GET /value?item= CCC[C@H](C(=O)O)[C@H](CCc1ccc(N)nc1)c1nnn[nH]1 [Example 405] &field=pIC50 returns 5.55

GET /value?item= CC(C)C[C@H](C(=O)O)[C@H](Cc1cc(Cl)nc(NCCO)c1)c1nnn[nH]1 [Example 407] &field=pIC50 returns 7.46

GET /value?item= CC(C)C[C@H](C(=O)O)[C@H](Cc1ccc(N2CCC(O)C2)nc1)c1nnn[nH]1 (stereo partly drawn) [Example 313] &field=pIC50 returns 7.12

GET /value?item= CC(C)(C)[C@H](C(=O)O)[C@H](Cc1ccc(C2CCNC2)cc1)c1nnn[nH]1.O=C(O)C(F)(F)F (stereo partly drawn) [Example 431, 2,2,2-trifluoroacetate] &field=pIC50 returns 7.14

GET /value?item= CCC[C@H](C(=O)O)[C@H](Cc1ccc(C2CCN(C(=N)N)C2)nc1)c1nnn[nH]1 (stereo partly drawn) [Example 411] &field=pIC50 returns 6.75

GET /value?item= CC(C)C[C@H](C(=O)O)[C@H](Cc1ccc(CCN2CCCCC2=O)c(F)c1)c1nn[nH]n1 [Example 438] &field=pIC50 returns 7.87

GET /value?item= CC(C)C[C@H](C(=O)O)[C@H](Cc1ccc(NCCC(N)C(F)(F)F)nc1)c1nnn[nH]1 (stereo partly drawn) [Example 320] &field=pIC50 returns 7.08

GET /value?item= CC(C)C[C@H](C(=O)O)[C@H](Cc1ccc(N2CCCC(C(C)(C)N)C2)nc1)c1nnn[nH]1 (stereo partly drawn) [Example 322] &field=pIC50 returns 6.47

GET /value?item= CCC[C@H](C(=O)O)[C@H](Cc1ccc(C(=O)NCCO)cc1)c1nnn[nH]1 [Example 280] &field=pIC50 returns 6.85
